# Target entity: T1, TBD-1 wt
# T1 construct: Fab; the heavy chain entry is VH-CH1; also called wild-type anti-TROP2 Fab (hRS7); TROP2 Fab
# Test method notes: competition ELISA, peptide vs Fab binding to captured biotin-TROP2
Where no end group is shown, it is not given here.
Outcome measure: pIC50
Note: pIC50 values are expressed as the negative base-10 logarithm of concentration in M.

Prompt line: So what's the measured pIC50 for this one? IDFCAMYQWPICDT (cysteine pairing not given here; also: biotinylated (site not given here)) [Peptide-1]
Response line: 6.11

Prompt line: Also, IDFCLLYDWPICGR (cysteine pairing not given here; also: biotinylated (site not given here)) [Peptide-17] please.
Response line: 6.37

Prompt line: # iterate: VDFCSFYRWPICET (cysteine pairing not given here; also: biotinylated (site not given here)) [Peptide-20]
Response line: 5.79

Prompt line: Lookup VDFCKLYNWPVCQT (cysteine pairing not given here; also: biotinylated, site not given here) [Peptide-5]
Response line: 5.80

Prompt line: Ok, now SVLFCVKNLYCWVT (cysteine pairing not given here; also: biotinylated (site not given here)) [Peptide-24]
Response line: 5.56

Prompt line: Quick one: IDFCAIYQWPVCRS (cysteine pairing not given here; also: biotinylated (site not given here)) [Peptide-10]
Response line: 5.91

Prompt line: Input IDFCAVYKWPVCQV (cysteine pairing not given here; also: biotinylated (site not given here)) [Peptide-2]
Response line: 5.65

Prompt line: What would you report for LDFCKIYDWPICHL (cysteine pairing not given here; also: biotinylated (site not given here)) [Peptide-14] ?
Response line: 5.66
